tested system: UniProt Q9YQ12
Sequence (Q9YQ12 whole entry): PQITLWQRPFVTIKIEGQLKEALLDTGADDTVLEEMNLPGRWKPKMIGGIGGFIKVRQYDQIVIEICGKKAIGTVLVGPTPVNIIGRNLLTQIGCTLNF
observed property: Ki (nM)
Express the result in nM but write the number alone.

{"compound": "CC(C)CN(C[C@@H](O)[C@H](Cc1cc(F)cc(F)c1)NC(=O)O[C@H]1CC2CO[C@H]3OCC[C@@H]1[C@@H]23)S(=O)(=O)c1ccc2nc(NC3CC3)sc2c1 (stereo partly drawn)", "Ki, nM": 0.012}

Looking for the measured Ki of CC(C)CN(C[C@@H](O)[C@H](Cc1cc(F)cc(F)c1)NC(=O)O[C@@H]1C[C@@H]2CO[C@@H]3OCC[C@H]1[C@H]23)S(=O)(=O)c1ccc2nc(NC3CC3)sc2c1 , can you help?
0.002

Consider the compound shown here: COc1ccc(S(=O)(=O)N(CC(C)C)C[C@@H](O)[C@H](Cc2ccccc2)NC(=O)O[C@H]2C[C@H]3CO[C@H]4CCC[C@@H]2[C@@H]34)cc1 What is its recorded Ki?
0.45

---

Measured EC50 of individual entries
Tested on: Human immunodeficiency virus 1
assay overview: Antiviral activity against LPV resistant HIV1 harboring protease L10F/[…]I54V/V82A mutant infected in human MT4 cells assessed as reduction in p24 Gag protein production after 7 days by chemiluminescent enzyme immunoassay
Assay type: functional, organism-based
conditions: Human immunodeficiency virus 1, MT4, 168 h
The response must be a number in nM with no trailing unit.

{"compound": "CC(C)CN(C[C@@H](O)[C@H](Cc1cc(F)cc(F)c1)NC(=O)O[C@@H]1C[C@@H]2CO[C@@H]3OCC[C@H]1[C@H]23)S(=O)(=O)c1ccc2nc(NC3CC3)sc2c1", "observed property": "EC50", "numeric readout": 2}
{"compound": "CC(C)CN(C[C@@H](O)[C@H](Cc1ccccc1)NC(=O)O[C@H]1CCOC1)S(=O)(=O)c1ccc(N)cc1", "observed property": "EC50", "numeric readout": 190}
{"compound": "CC(C)CN(C[C@@H](O)[C@H](Cc1cc(F)cc(F)c1)NC(=O)O[C@H]1CC2CO[C@H]3OCC[C@@H]1[C@@H]23)S(=O)(=O)c1ccc2nc(NC3CC3)sc2c1 (stereo not given in full)", "observed property": "EC50", "numeric readout": 2}

Turning now to a further record.
Suppose we examine the compound COC(=O)N[C@H](C(=O)N[C@@H](Cc1ccccc1)[C@@H](O)CN(Cc1ccc(-c2ccccn2)cc1)NC(=O)[C@@H](NC(=O)OC)C(C)(C)C)C(C)(C)C ; what EC50 value has been reported?
29

---

System: Human immunodeficiency virus 1
assay overview: Antiviral activity against APV resistant HIV1 harboring protease L10F/M46I/I50V/I85V mutant infected in human MT4 cells assessed as reduction in p24 Gag protein production after 7 days by chemiluminescent enzyme immunoassay
Format: functional, organism-based
conditions: Human immunodeficiency virus 1, MT4, 168 h
Catalogue of molecules with associated pEC50
Remember, pEC50 is on a log scale: it is -log10 of the molar concentration.

Sample records with pEC50:
{"molecule": "Cc1cccc(C)c1OCC(=O)N[C@@H](Cc1ccccc1)[C@@H](O)C[C@H](Cc1ccccc1)NC(=O)[C@H](C(C)C)N1CCCNC1=O", "tested system": "Human immunodeficiency virus 1", "pEC50": 6.41}
{"molecule": "CC(C)CN(C[C@@H](O)[C@H](Cc1cc(F)cc(F)c1)NC(=O)O[C@H]1CC2CO[C@H]3OCC[C@@H]1[C@@H]23)S(=O)(=O)c1ccc2nc(NC3CC3)sc2c1 (stereo not given in full)", "tested system": "Human immunodeficiency virus 1", "pEC50": 9.49}
{"molecule": "COC(=O)N[C@H](C(=O)N[C@@H](Cc1ccccc1)[C@@H](O)CN(Cc1ccc(-c2ccccn2)cc1)NC(=O)[C@@H](NC(=O)OC)C(C)(C)C)C(C)(C)C", "tested system": "Human immunodeficiency virus 1", "pEC50": 7.15}

Then this molecule:
What value of pEC50 has been recorded for this entry: CC(C)CN(C[C@@H](O)[C@H](Cc1cc(F)cc(F)c1)NC(=O)O[C@@H]1C[C@@H]2CO[C@@H]3OCC[C@H]1[C@H]23)S(=O)(=O)c1ccc2nc(NC3CC3)sc2c1
9.52

---

Each entry below carries its measured log10(Ki), system: UniProt Q9YQ12.
Values are log10 of Ki in nM.

Some compounds with known log10(Ki) results, for comparison:
{"sample smiles": "CC(C)CN(C[C@@H](O)[C@H](Cc1ccccc1)NC(=O)O[C@@H]1C[C@@H]2CO[C@@H]3OCC[C@H]1[C@H]23)S(=O)(=O)c1ccc2nc(NC3CC3)sc2c1", "log10(Ki)": -0.30}
{"sample smiles": "COc1ccc(S(=O)(=O)N(CC(C)C)C[C@@H](O)[C@H](Cc2ccccc2)NC(=O)O[C@H]2C[C@H]3CCO[C@H]4OC[C@@H]2[C@@H]34)cc1", "log10(Ki)": -2.30}

API: value(readout= log10(Ki), system= UniProt Q9YQ12, query= COc1ccc(S(=O)(=O)N(CC(C)C)C[C@@H](O)[C@H](Cc2ccccc2)NC(=O)O[C@@H]2C[C@@H]3CO[C@@H]4OCC[C@H]2[C@H]34)cc1 )
-2.10

Lab note: need log10(Ki) for COc1ccc(S(=O)(=O)N(CC(C)C)C[C@@H](O)[C@H](Cc2ccccc2)NC(=O)O[C@@H]2C[C@@H]3CO[C@@H]4CCC[C@H]2[C@H]34)cc1 on UniProt Q9YQ12, anyone have it?
0.66

// lookup log10(Ki) | system=UniProt Q9YQ12 | key= COC[C@@H]1C[C@@H]2[C@H]3[C@H](CO[C@H]3O1)C[C@@H]2OC(=O)N[C@@H](Cc1ccccc1)[C@H](O)CN(CC(C)C)S(=O)(=O)c1ccc(OC)cc1
-1.05

---

Test system: Human immunodeficiency virus 1
assay overview: Resistance index, ratio of EC50 for antiviral activity against ATV resistant HIV1 harboring protease L23I/E34Q/K43I/M46I/I50L/G51A/L63P/A71V/V82A/T91A mutant infected in human MT4 cells to EC50 for antiviral activity against wild type HIV1 NL4-3 infected in human MT4 cells
Type: functional
observed property: Ratio EC50
No unit in the answer, only the number.

Here's what some known entries look like.
{"compound": "CC(C)CN(C[C@@H](O)[C@H](Cc1ccccc1)NC(=O)O[C@H]1CCOC1)S(=O)(=O)c1ccc(N)cc1", "observed property": "Ratio EC50", "numeric readout": 11}
{"compound": "CC(C)CN(C[C@@H](O)[C@H](Cc1cc(F)cc(F)c1)NC(=O)O[C@H]1CC2CO[C@H]3OCC[C@@H]1[C@@H]23)S(=O)(=O)c1ccc2nc(NC3CC3)sc2c1 (some centres undefined)", "observed property": "Ratio EC50", "numeric readout": 1}

Consider the compound shown here: CC(C)CN(C[C@@H](O)[C@H](Cc1cc(F)cc(F)c1)NC(=O)O[C@@H]1C[C@@H]2CO[C@@H]3OCC[C@H]1[C@H]23)S(=O)(=O)c1ccc2nc(NC3CC3)sc2c1 What is its recorded Ratio EC50?
0.3
